- experimental_protocol: Dissociation constant, pKa of the compound
- Format: physicochemical
Listing of entries alongside the reported pKa.
Answer field: number only, no words.

Completed entries (count: 5):
O=C(O)CCCC[P+](c1ccccc1)(c1ccccc1)c1ccccc1    5.19
O=C(CCCC[P+](c1ccccc1)(c1ccccc1)c1ccccc1)NS(=O)(=O)c1ccccc1    5.12
NC(=O)CCCC[P+](c1ccccc1)(c1ccccc1)c1ccccc1    15.1
CS(=O)(=O)NC(=O)CCCC[P+](c1ccccc1)(c1ccccc1)c1ccccc1    5.25
O=C(CCCC[P+](c1ccccc1)(c1ccccc1)c1ccccc1)NC(=O)c1ccccc1    12.9

Give me measured pKa, please, for this compound: c1ccc([P+](CCCCc2nnn[nH]2)(c2ccccc2)c2ccccc2)cc1
4.93

Give me measured pKa, please, for this compound: CC(=O)NC(=O)CCCC[P+](c1ccccc1)(c1ccccc1)c1ccccc1
12.9
